- assayTarget: human PHGDH C116S mutant (Homo sapiens, UniProt O43175, C116S)
- Construct: peptides including 12 out of the 13 Cys residues of the full length PHGDH could be identified and tracked
- Sequence (O43175 whole entry C116S): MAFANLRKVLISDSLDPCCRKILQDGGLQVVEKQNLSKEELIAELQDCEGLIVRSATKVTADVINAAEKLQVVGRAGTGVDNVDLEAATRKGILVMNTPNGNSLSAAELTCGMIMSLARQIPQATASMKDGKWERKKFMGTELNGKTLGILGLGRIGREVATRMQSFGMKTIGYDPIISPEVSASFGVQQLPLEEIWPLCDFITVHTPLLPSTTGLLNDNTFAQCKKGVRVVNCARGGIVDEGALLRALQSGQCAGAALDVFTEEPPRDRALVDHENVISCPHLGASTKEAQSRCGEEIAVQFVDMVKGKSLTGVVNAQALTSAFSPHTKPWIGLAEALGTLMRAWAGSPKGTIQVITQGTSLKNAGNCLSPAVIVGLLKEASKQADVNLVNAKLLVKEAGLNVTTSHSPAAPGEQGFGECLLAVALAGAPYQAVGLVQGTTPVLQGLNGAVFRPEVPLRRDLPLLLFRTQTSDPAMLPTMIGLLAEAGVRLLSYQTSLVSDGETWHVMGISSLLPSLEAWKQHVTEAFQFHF
- testDetails: PHGDH enzyme inhibition assay, C116S mutant
- conditionDetails: C116S mutant, Table 2
reportedProperty: IC50
Remember to follow the number with its unit.

Per the record, CCN(CC)C(=S)SSC(=S)N(CC)CC [DSF, bis(diethylthiocarbamoyl) disulfide] has IC50 of 10.2 µM

* * *

- assayTarget: human PHGDH (wild type) (Homo sapiens, UniProt O43175)
- Construct: peptides including 12 out of the 13 Cys residues of the full length PHGDH could be identified and tracked; made in house; host or cells: Escherichia coli BL21
- Sequence (O43175 whole entry): as the sequence (O43175 whole entry C116S) above, with S116C counted along it
- testDetails: PHGDH isolated enzyme inhibition assay (NADH fluorescence), wild type
- Format: biochemical
- conditionDetails: purified PHGDH, triplicates, Table 1; read-out: PHGDH inhibition (IC50)
- Experimental: Enzymatic assay was adapted from a previously described procedure. […] Assays were performed in PHGDH assay buffer (50 mM Tris, pH 8.5, and 1 mM EDTA). […] The final concentration of DMSO in the assay mixture was set to 5%. pET28a human PHGDH and pET28a human C116S PHGDH were transformed into BL21 Escherichia coli. A single colony was grown to an OD600 0.6 in 1 L of Luria broth. […] Fraction protein content was measured via a Bradford assay. […] Protein purity was assessed via SDS/PAGE and Coomassie staining.
reportedProperty: IC50 (nM)
Give just the number in nM; leave the unit off.

Lookup result for CCN(CC)C(=S)SSC(=S)N(CC)CC [DSF, bis(diethylthiocarbamoyl) disulfide] ; measured IC50: 590

* * *

- assayTarget: human PHGDH (wild type) (Homo sapiens, UniProt O43175)
- Construct: peptides including 12 out of the 13 Cys residues of the full length PHGDH could be identified and tracked; made in house; host or cells: Escherichia coli BL21
- testDetails: PHGDH isolated enzyme inhibition assay (NADH fluorescence), wild type
- Type: biochemical
- conditionDetails: Wild Type PHGDH, Table 2; read-out: PHGDH inhibition (IC50)
- Description: Enzymatic assay was adapted from a previously described procedure. […] Assays were performed in PHGDH assay buffer (50 mM Tris, pH 8.5, and 1 mM EDTA). […] The final concentration of DMSO in the assay mixture was set to 5%. pET28a human PHGDH and pET28a human C116S PHGDH were transformed into BL21 Escherichia coli. A single colony was grown to an OD600 0.6 in 1 L of Luria broth. […] Fraction protein content was measured via a Bradford assay. […] Protein purity was assessed via SDS/PAGE and Coomassie staining.
reportedProperty: IC50 (µM)
Give just the number in µM; leave the unit off.

# molecule CCN(CC)C(=S)SSC(=S)N(CC)CC [DSF, bis(diethylthiocarbamoyl) disulfide] ; its IC50 = 0.59

* * *

- assayTarget: human PHGDH (wild type) (Homo sapiens, UniProt O43175)
- Construct: peptides including 12 out of the 13 Cys residues of the full length PHGDH could be identified and tracked; made in house; host or cells: Escherichia coli BL21
- testDetails: PHGDH isolated enzyme inhibition assay (NADH fluorescence), wild type
- Format: biochemical
- conditionDetails: wild type PHGDH 12 ng/µL, 37 °C, pH 8.5, Fig. 2; read-out: PHGDH inhibition (IC50)
reportedProperty: IC50

# compound CCN(CC)C(=S)[S][Cu][S]C(=S)N(CC)CC [CuET, bis(diethyldithiocarbamate)–copper] ; its IC50 = ~10 µM
